experiment.notes: Phase 1 open-label 2-sequence crossover study, single-dose pharmacokinetics of deutetrabenazine metabolites in healthy subjects
Type: in vivo, human
measurement.setup: share of total circulating DHTBZ exposure after single dose deutetrabenazine 24 mg
Method: A phase 1, open-label, 2-sequence crossover study was conducted to evaluate the HTBZ PK profile following administration of valbenazine (40 mg) or deutetrabenazine (24 mg) to a total of 18 healthy male and female subjects. […] PK parameters were determined using non-compartmental analysis with Phoenix WinNonlin 8.3 software. The in vitro pharmacology of the deuterated HTBZ metabolites was assessed using competitive radioligand binding assays.
experimental.readout: AUC (% of Total) (%)

Below are worked cases with known answers.
| compound | AUC (% of Total) (%) |
| --- | --- |
| [2H]C([2H])([2H])Oc1cc2c(cc1OC([2H])([2H])[2H])[C@H]1C[C@@H](O)[C@H](CC(C)C)CN1CC2 [[+]-α-DHTBZ] | 2 |
| [2H]C([2H])([2H])Oc1cc2c(cc1OC([2H])([2H])[2H])[C@@H]1C[C@@H](O)[C@@H](CC(C)C)CN1CC2 [[−]-β-DHTBZ] | 3 |

1. [2H]C([2H])([2H])Oc1cc2c(cc1OC([2H])([2H])[2H])[C@@H]1C[C@H](O)[C@@H](CC(C)C)CN1CC2 [[−]-α-DHTBZ]
2. [2H]C([2H])([2H])Oc1cc2c(cc1OC([2H])([2H])[2H])[C@H]1C[C@H](O)[C@H](CC(C)C)CN1CC2 [[+]-β-DHTBZ]
Hello, I am sorting some records. Could you say if 1 or 2 has the smaller AUC (% of Total) value? Identify your selection by its label.
2

* * *

experiment.notes: Phase 1 open-label 2-sequence crossover study, single-dose pharmacokinetics of deutetrabenazine metabolites in healthy subjects
Format: in vivo, human
measurement.setup: both sexes, human, plasma, oral, 24 mg, metabolites of AUSTEDO, approximate; read-out: half-life (converted)
Experimental: A phase 1, open-label, 2-sequence crossover study was conducted to evaluate the HTBZ PK profile following administration of valbenazine (40 mg) or deutetrabenazine (24 mg) to a total of 18 healthy male and female subjects. […] PK parameters were determined using non-compartmental analysis with Phoenix WinNonlin 8.3 software. The in vitro pharmacology of the deuterated HTBZ metabolites was assessed using competitive radioligand binding assays.
experimental.readout: half-life

Below are worked cases with known answers.
| compound | half-life |
| --- | --- |
| [2H]C([2H])([2H])Oc1cc2c(cc1OC([2H])([2H])[2H])[C@H]1C[C@@H](O)[C@H](CC(C)C)CN1CC2 [[+]-α-DHTBZ] | ~6 h |
| [2H]C([2H])([2H])Oc1cc2c(cc1OC([2H])([2H])[2H])[C@@H]1C[C@H](O)[C@@H](CC(C)C)CN1CC2 [[−]-α-DHTBZ] | ~12 h |
| [2H]C([2H])([2H])Oc1cc2c(cc1OC([2H])([2H])[2H])[C@@H]1C[C@@H](O)[C@@H](CC(C)C)CN1CC2 [[−]-β-DHTBZ] | ~8 h |

Let us move to another entry and its half-life.
What measured half-life goes with [2H]C([2H])([2H])Oc1cc2c(cc1OC([2H])([2H])[2H])[C@H]1C[C@H](O)[C@H](CC(C)C)CN1CC2 [[+]-β-DHTBZ] ?
~5 h

* * *

experiment.notes: Phase 1 open-label 2-sequence crossover study, single-dose pharmacokinetics of deutetrabenazine metabolites in healthy subjects
Format: in vivo, human
measurement.setup: both sexes, human, oral; plasma, healthy subjects, single dose deutetrabenazine 24 mg; % CV in parentheses
experimental.readout: AUC (ng·h/mL)

P. [2H]C([2H])([2H])Oc1cc2c(cc1OC([2H])([2H])[2H])[C@@H]1C[C@@H](O)[C@@H](CC(C)C)CN1CC2 [[−]-β-DHTBZ]
Q. [2H]C([2H])([2H])Oc1cc2c(cc1OC([2H])([2H])[2H])[C@H]1C[C@@H](O)[C@H](CC(C)C)CN1CC2 [[+]-α-DHTBZ]
R. [2H]C([2H])([2H])Oc1cc2c(cc1OC([2H])([2H])[2H])[C@@H]1C[C@H](O)[C@@H](CC(C)C)CN1CC2 [[−]-α-DHTBZ]
S. [2H]C([2H])([2H])Oc1cc2c(cc1OC([2H])([2H])[2H])[C@H]1C[C@H](O)[C@H](CC(C)C)CN1CC2 [[+]-β-DHTBZ]
Please rank the 4 items above; order by AUC, the highest number leading. Output spec: a listing of the labels in the requested order.
R, S, P, Q
(R: 396 ng·h/mL, S: 176 ng·h/mL, P: 15.8 ng·h/mL, Q: 11 ng·h/mL)

* * *

experiment.notes: Phase 1 open-label 2-sequence crossover study, single-dose pharmacokinetics of deutetrabenazine metabolites in healthy subjects
Assay type: in vivo, human
measurement.setup: both sexes, human, oral; plasma, healthy subjects, single dose deutetrabenazine 24 mg; % CV in parentheses
experimental.readout: Cmax (ng/mL)

| compound | Cmax, ng/mL |
| --- | --- |
| [2H]C([2H])([2H])Oc1cc2c(cc1OC([2H])([2H])[2H])[C@@H]1C[C@@H](O)[C@@H](CC(C)C)CN1CC2 [[−]-β-DHTBZ] | 1.7 |

I. [2H]C([2H])([2H])Oc1cc2c(cc1OC([2H])([2H])[2H])[C@H]1C[C@@H](O)[C@H](CC(C)C)CN1CC2 [[+]-α-DHTBZ]
II. [2H]C([2H])([2H])Oc1cc2c(cc1OC([2H])([2H])[2H])[C@H]1C[C@H](O)[C@H](CC(C)C)CN1CC2 [[+]-β-DHTBZ]
III. [2H]C([2H])([2H])Oc1cc2c(cc1OC([2H])([2H])[2H])[C@@H]1C[C@H](O)[C@@H](CC(C)C)CN1CC2 [[−]-α-DHTBZ]
// smallest Cmax at index 0, largest at the end Output spec: a listing of the labels in the requested order.
I, II, III
(I: 1.2 ng/mL, II: 20.4 ng/mL, III: 32.2 ng/mL)

* * *

experiment.notes: Phase 1 open-label 2-sequence crossover study, single-dose pharmacokinetics of deutetrabenazine metabolites in healthy subjects
Type: in vivo, human
measurement.setup: both sexes, human, plasma, oral, 24 mg, after deutetrabenazine administration; read-out: mean half-life (converted)
Method: A phase 1, open-label, 2-sequence crossover study was conducted to evaluate the HTBZ PK profile following administration of valbenazine (40 mg) or deutetrabenazine (24 mg) to a total of 18 healthy male and female subjects. […] PK parameters were determined using non-compartmental analysis with Phoenix WinNonlin 8.3 software. The in vitro pharmacology of the deuterated HTBZ metabolites was assessed using competitive radioligand binding assays.
experimental.readout: half-life (h)
Dear colleague, please return just the value in h, with no unit written.

What measured half-life goes with [2H]C([2H])([2H])Oc1cc2c(cc1OC([2H])([2H])[2H])[C@H]1C[C@H](O)[C@H](CC(C)C)CN1CC2 [[+]-β-DHTBZ] ?
7.7

Data provenance is patent US20240197714A1.
